Source listed as ChEMBL document CHEMBL1201862.

Test system: TK-10
TEST DESCRIPTION: NCI tumour cell line growth inhibition, 48 h
Active and inactive are the calls of the source. Rule as the data show it: active = GI50 up to about 1.1 µM and inactive = higher.
Field: GI50. Provide a value for each of the molecules that follow.

Please report the recorded GI50 for Cc1cc2c(=O)c3ccccc3oc2c(C#N)c1C .
> 100 µM (inactive)

Please report the recorded GI50 for S=c1[nH]c2c(Cl)c(Cl)c(Cl)c(Cl)c2[nH]1 .
22 µM (inactive)

Please report the recorded GI50 for COC(=O)c1cccc(C)c1C1CN=NC12Cc1c(ccc(C)c1C)C2=O (stereo unspecified) .
> 100 µM (inactive)

Please report the recorded GI50 for C[C@@H]1OCC(O)C([C@H]2OC(c3ccccc3)=N[C@H]2CO)O1 (stereo partly specified) .
> 100 µM (inactive)

Please report the recorded GI50 for Oc1ccc2ccccc2c1/N=N/c1ccccc1 .
73.3 µM (inactive)

Please report the recorded GI50 for CCOC(=O)c1nc2c(Cl)c3ncccc3cc2[nH]c1=O .
> 100 µM (inactive)

Please report the recorded GI50 for NC1=NN(c2ccccc2)C(=O)C1/C(=N\NC(=O)c1cc2ccccc2cc1O)C(=O)Nc1nc([N+](=O)[O-])cs1 (stereo unspecified) .
38.5 µM (inactive)

Please report the recorded GI50 for COC(=O)c1ccc(COC(=O)N2C=CCC2C(=O)O)cc1 (stereo unspecified) .
> 100 µM (inactive)

Please report the recorded GI50 for Cc1cn(C2CC(N)C(C(=O)NCC(=O)O)O2)c(=O)[nH]c1=O (stereo unspecified) .
> 100 µM (inactive)

Please report the recorded GI50 for Cc1c(C(=O)O)c2cc3ccccc3cc2c(=O)n1C .
> 10 µM (inactive)

Please report the recorded GI50 for CC(/C=C/C=C\C=C\C=C(/C)C(=O)NC(C)CO)=C\C(C)C(O)/C(C)=C/C(C)CCc1ccccc1 (stereo unspecified) .
14 µM (inactive)
